The reported numbers originate from paper PMC12097015.

# assay name: Pharmacokinetic study in BALB/c mice
# Assay type: in vivo
# setup conditions: mouse, plasma, 1.0 mg kg^−1 (iv)

| molecule | clearance |
| --- | --- |
| COc1ccc(C2=N[C@H](c3ccc(Cl)cc3)[C@H](c3ccc(Cl)cc3)N2C(=O)N2CCN(CC(=O)NCCCCCCCCOc3cccc4c3C(=O)N(C3CCC(=O)NC3=O)C4=O)C(=O)C2)c(OC(C)C)c1 (stereo in doubt) [CL144] | 30.6 mL/min/kg |

---

# assay name: Pharmacokinetic study in BALB/c mice
# Type: in vivo
# setup conditions: mouse, plasma, 10 mg kg^−1 (po), read-out: MRT0–∞

| molecule | MRT inf, h |
| --- | --- |
| COc1ccc(C2=N[C@H](c3ccc(Cl)cc3)[C@H](c3ccc(Cl)cc3)N2C(=O)N2CCN(CC(=O)NCCCCCCCCOc3cccc4c3C(=O)N(C3CCC(=O)NC3=O)C4=O)C(=O)C2)c(OC(C)C)c1 (stereo in doubt) [CL144] | 1.67 |
